Reference source: ChEMBL document CHEMBL1667843

A collection of compounds and their measured pIC50
target: Glucocorticoid receptor (Homo sapiens, UniProt P04150); assay: Agonist activity at GR in human A549 cells transfected with luciferase gene linked to MMTV promoter assessed as luciferase transactivation activity; assay type: functional, cell-based
Sequence (P04150 whole entry): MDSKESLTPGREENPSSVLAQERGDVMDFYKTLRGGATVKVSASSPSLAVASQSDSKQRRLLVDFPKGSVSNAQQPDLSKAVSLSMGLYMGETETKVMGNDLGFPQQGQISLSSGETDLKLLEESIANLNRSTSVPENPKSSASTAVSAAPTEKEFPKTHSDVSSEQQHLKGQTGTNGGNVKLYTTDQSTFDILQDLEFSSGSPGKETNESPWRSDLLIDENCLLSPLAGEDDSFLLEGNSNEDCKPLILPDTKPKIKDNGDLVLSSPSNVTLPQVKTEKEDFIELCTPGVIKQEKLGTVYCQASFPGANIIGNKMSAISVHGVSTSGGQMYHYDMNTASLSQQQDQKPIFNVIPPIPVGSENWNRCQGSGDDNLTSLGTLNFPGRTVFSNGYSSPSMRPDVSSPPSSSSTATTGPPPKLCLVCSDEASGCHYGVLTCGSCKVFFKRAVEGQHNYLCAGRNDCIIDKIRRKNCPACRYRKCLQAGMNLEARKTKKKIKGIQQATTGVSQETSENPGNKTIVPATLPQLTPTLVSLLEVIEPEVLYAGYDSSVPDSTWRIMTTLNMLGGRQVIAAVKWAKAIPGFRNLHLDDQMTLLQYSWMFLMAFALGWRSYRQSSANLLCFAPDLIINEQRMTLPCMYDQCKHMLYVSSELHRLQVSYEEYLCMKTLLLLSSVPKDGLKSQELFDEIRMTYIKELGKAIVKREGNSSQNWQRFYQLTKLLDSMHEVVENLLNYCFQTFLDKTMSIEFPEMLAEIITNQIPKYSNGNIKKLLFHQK
pIC50: −log10 of the molar value.

{"columns": ["COMPOUND", "COMPARISON SYMBOL", "pIC50"],
 "data": [
  ["COc1cccc(-n2ncc3c(NC[C@H](C)NS(=O)(=O)c4c(C)cc(C)cc4C)cc(C)cc32)c1", "=", 6.70],
  ["COc1ccc(-n2ncc3c(NC[C@H](C)NS(=O)(=O)c4c(C)cc(C)cc4C)cc(C)cc32)cc1", "=", 7.30],
  ["Cc1cc(C)c(S(=O)(=O)NC[C@@H](C)Nc2cc(C)cc3c2cnn3-c2ccc(F)cc2)c(C)c1", "=", 7.30],
  ["Cc1cc(NC[C@H](C)NS(=O)(=O)C2CC2)c2cnn(-c3cccc(C(=O)N(C)[C@H](C)C(N)=O)c3)c2c1", "=", 7.30],
  ["Cc1cc(C)c(S(=O)(=O)N[C@@H](C)CNc2cc(C)cc3c2cnn3-c2cccc(NC3CC3)c2)c(C)c1", "=", 8.90],
  ["Cc1cc(C)c(S(=O)(=O)N[C@@H](C)CNc2cc(C)cc3c2cnn3-c2ccc(F)cc2)c(C)c1", "=", 8.40],
  ["Cc1cc(C)c(S(=O)(=O)N[C@@H](C)CNc2cc(C)cc3c2cnn3-c2ccc(N[C@@H](C)C(N)=O)cc2)c(C)c1", "=", 7.80],
  ["Cc1cc(NC[C@H](C)NS(=O)(=O)C2CC2)c2cnn(-c3cccc(C(=O)N4CCCC(CO)C4)c3)c2c1 (stereo partly drawn)", "<", 5.20]
]}
